Experiment: Solubility determination for selected C5aR-antagonists
Type: physicochemical
Settings: aqueous HEPES buffer (pH 7.4)
Protocol: Solubility of compounds was determined by the following procedure: 20 μl of a 10 mM stock solution (in DMSO) of the compound were diluted in 980 μl of the solvent to be tested. After incubation for 24 h at RT under shaking the samples are centrifuged at 11.000 rpm in an Eppendorf centrifuge. The supematant is determined by photometry. […] The UV-absorption of the supernatant was measured and compared to a respective reference value 60% MeOH).
Starred links: 1 amine or outer side, 2 acyl side, 3 side chain; linkers in the order of their positions; H or OH if unused. Positions of bridges follow the written chain, without caps; N, C: chain ends. Non-standard residues stand in square brackets, D forms with d. Residues, ends and D or L forms follow the SMILES beside them. X2 = COC1O[C@H](C(=O)[*:2])[C@@H](O)[C@H](O)[C@H]1N[*:1]; Hyp = O=C(O)[C@@H]1C[C@@H](O)CN1; dCha = N[C@H](CC1CCCCC1)C(=O)O; Nle = CCCC[C@H](N)C(=O)O; Orn = NCCC[C@H](N)C(=O)O
# if value of solubility reaches 20%, tag true (1); if it stays below, tag false (0)

# example entries with known answers
Molecule	Answer label
CC(=O)N[C@@H](Cc1ccccc1)C(=O)N[C@H]1CCCNC(=O)[C@H](Cc2ccccc2)NC(=O)[C@H](Cc2c[nH]c3ccccc23)NC(=O)[C@@H](CC2CCCCC2)NC(=O)[C@@H]2C[C@@H](O)CN2C1=O [Compound 2, Ac-Phe-[Orn-Hyp-cha-Trp-Phe]] (Ac-F[Orn][Hyp][dCha]WF; lactam 2-C)	false (0)
CCCC[C@@H]1NC(=O)[C@H](Cc2c[nH]c3ccccc23)NC(=O)[C@@H](CC2CCCCC2)NC(=O)[C@@H]2CCCN2C(=O)[C@@H](NC(=O)[C@H](Cc2ccccc2)NC(C)=O)CCCNC1=O [Compound 28, Ac-Phe-[Orn-Pro-cha-Trp-Nle]] (Ac-F[Orn]P[dCha]W[Nle]; lactam 2-C)	true (1)
CC(=O)N[C@@H](Cc1ccccc1)C(=O)N[C@H]1CCCNC(=O)[C@H](Cc2ccccc2)NC(=O)[C@H](Cc2c[nH]c3ccccc23)NC(=O)[C@@H](CC2CCCCC2)NC(=O)[C@@H]2CCCN2C1=O [Compound 1, Ac-Phe-[Orn-Pro-cha-Trp-Phe]] (Ac-F[Orn]P[dCha]WF; lactam 2-C)	false (0)
CC(=O)N[C@@H](Cc1ccccc1)C(=O)N[C@H]1CCCNC(=O)[C@H](CCCNC(=N)N)NC(=O)[C@H](Cc2c[nH]c3ccccc23)NC(=O)[C@@H](CC2CCCCC2)NC(=O)[C@@H]2CCCN2C1=O [Compound 40, Ac-Phe-[Orn-Pro-cha-Trp-Arg], reference compound]	true (1)

In the following, a different molecule is considered.
# input Identify whether the reported solubility of the following molecule is 20% or greater: CCCC[C@@H]1NC(=O)[C@H](Cc2c[nH]c3ccccc23)NC(=O)[C@@H](CC2CCCCC2)NC(=O)[C@@H]2CCCN2C(=O)[C@@H](NC(=O)[C@H](Cc2ccccc2)NC(=O)[C@H]2OC(OC)[C@H](NC(C)=O)[C@@H](O)[C@@H]2O)CCCNC1=O (some centres unmarked) [Compound 4] (Ac-[X2]F[Orn]P[dCha]W[Nle]; lactam 3-C)
# output true (1)
